# System: hepatocytes
# assayName: Hepatocyte stability assay, human
# Type: in vitro ADME
# conditionSummary: 10 μM compound, 0.5×10^6 cells/mL, 60 min
experimentalEndpoint: CIint (μL min^−1 10^−6 cells)

{"columns": ["compound", "displayUnit", "valueObserved"],
 "data": [
  ["C=C(CC(=O)OC1(c2cccc(Cl)c2Cl)CCC1)C(=O)OCC(=O)O [Example 7]", "μL min^−1 10^−6 cells", 10],
  ["C=C(CC(=O)OC1(c2ccc(C(F)(F)F)cc2)CCC1)C(=O)OCCC(=O)O [Example 22]", "μL min^−1 10^−6 cells", 9],
  ["C=C(CC(=O)OC1(c2cc(F)c(C(F)(F)F)c(F)c2)CCC1)C(=O)OCC(=O)O [Example 19]", "μL min^−1 10^−6 cells", 8]
]}

I. C=C(CC(=O)OC1(c2ccc(C)c(Cl)c2)CCC1)C(=O)OCC(=O)O [Example 20]
II. C=C(CC(=O)OC1(c2ccc(C(F)(F)F)cc2)COC1)C(=O)OCCC(=O)O [Example 32]
**Q:** Lab note: check whether I or II shows the higher recorded CIint. Refer to your chosen item by its label in the answer.
**A:** I

====

# System: hepatocytes
# assayName: Hepatocyte stability assay, human
# Format: in vitro ADME
# conditionSummary: 10 μM compound, 0.5×10^6 cells/mL, 60 min
experimentalEndpoint: CIint (μL min^−1 10^−6 cells)

Solved entries (count: 3):
{"columns": ["molecularString", "displayUnit", "CIint"],
 "data": [
  ["C=C(CC(=O)OC1(c2ccc(C(F)(F)F)cc2)CCC1)C(=O)OC1(CC(=O)O)COC1", "μL min^−1 10^−6 cells", 7],
  ["C=C(CC(=O)OC1(c2ccc(OC(F)(F)F)cc2Cl)CCC1)C(=O)OCC(=O)O", "μL min^−1 10^−6 cells", 18],
  ["C=C(CC(=O)OC1(c2ccc(OC(F)(F)F)cc2)CCC1)C(=O)OCC(=O)O", "μL min^−1 10^−6 cells", 6]
]}

A. C=C(CC(=O)OC1(c2cc(Cl)cc(Cl)c2)CCC1)C(=O)OCCC(=O)O
B. C=C(CC(=O)OC1(c2ccc(Cl)cc2)CCC1)C(=O)OCC(=O)O
**Q:** Which gives the smaller CIint number: A or B ? Refer to your chosen entry by its label in the reply.
**A:** B
(B: 8 μL min^−1 10^−6 cells, A: 16 μL min^−1 10^−6 cells)

====

# assayName: Hepatocyte stability assay, human
# Format: in vitro ADME
# conditionSummary: cryopreserved hepatocytes, 10 μM compound, 0.5×10^6 cells/mL, 60 min, read-out: T½
experimentalEndpoint: half-life at 10 μM (h)

A. C=C(CC(=O)OC1(c2ccc(C(F)(F)F)cc2)CC1)C(=O)OCC(=O)O [Example 30]
B. C=C(CC(=O)OC1(c2ccc(C(F)(F)F)c(Cl)c2)CCC1)C(=O)OCC(=O)O [Example 16]
C. C=C(CC(=O)OC1(c2ccc(C(F)(F)F)cc2)COC1)C(=O)OCCC(=O)O [Example 32]
D. C=C(CC(=O)OC1(c2c(Cl)cccc2Cl)CCC1)C(=O)OCC(=O)O [Example 8]
**Q:** Order the entries above by descending half-life at 10 μM. Your task in answering is to list the labels in the requested order.
**A:** C, B, D, A
(C: 6.78 h, B: 3.48 h, D: 2.37 h, A: 1.43 h)

a. C=C(CC(=O)OC1(c2cc(Cl)c(OC)c(Cl)c2)CCC1)C(=O)OCC(=O)O [Example 18]
b. C=C(CC(=O)OC1(c2ccc(Br)cc2Cl)CCC1)C(=O)OCC(=O)O [Example 12]
c. C=C(CC(=O)OC1(c2ccc(C(F)(F)F)cc2)CCC1)C(=O)OCCC(=O)O [Example 22]
**Q:** Hey, can you sort those compounds up there by half-life at 10 μM, smallest first? Please, when replying, give the labels in the order that was requested.
**A:** b, a, c
(b: 1.07 h, a: 1.82 h, c: 2.6 h)
